Value source: patent US20240360228A1

Target: T1, human CCR8 (human, UniProt P51685 1-355)
T1 construct: Native CCR8 on human PBMC (CCR8+ CD3+ or CCR8+ CD4+ lymphocytes); also called chemokine (C-C motif) receptor 8
T1 sequence (P51685 whole entry): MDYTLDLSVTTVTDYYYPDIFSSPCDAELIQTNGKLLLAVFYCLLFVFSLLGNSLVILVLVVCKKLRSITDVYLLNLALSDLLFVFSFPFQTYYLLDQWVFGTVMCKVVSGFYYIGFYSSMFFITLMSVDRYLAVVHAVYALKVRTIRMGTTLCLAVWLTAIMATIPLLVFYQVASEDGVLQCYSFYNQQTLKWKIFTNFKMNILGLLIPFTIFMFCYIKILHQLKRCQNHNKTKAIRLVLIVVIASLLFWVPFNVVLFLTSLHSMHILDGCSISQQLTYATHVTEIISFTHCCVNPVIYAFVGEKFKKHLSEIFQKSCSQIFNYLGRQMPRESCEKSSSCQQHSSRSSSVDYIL
Test: flow blocking, PBMC CCR8+CD4+; competitor PE-AB10
outcome-measure: % Positive cells (%)
// return numeric value only (unit: %, not printed)

Task item: Fill in: % Positive cells of AB14 (antibody, V domains shown, Hybridoma monoclonal; Same VH/VL entries as AB15; also called antibody 14; clone 14) VH: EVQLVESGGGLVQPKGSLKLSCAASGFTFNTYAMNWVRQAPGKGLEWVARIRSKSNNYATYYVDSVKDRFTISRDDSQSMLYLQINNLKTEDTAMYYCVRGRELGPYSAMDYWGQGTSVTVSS VL: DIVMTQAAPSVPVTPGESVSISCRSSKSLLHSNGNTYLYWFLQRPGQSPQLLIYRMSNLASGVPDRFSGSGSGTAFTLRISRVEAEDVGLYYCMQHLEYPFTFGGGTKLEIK is ___
Reply: 0.06

Next:
Task item: Fill in: % Positive cells of AB13 (antibody, V domains shown, Hybridoma monoclonal; also called antibody 13; clone 13) VH: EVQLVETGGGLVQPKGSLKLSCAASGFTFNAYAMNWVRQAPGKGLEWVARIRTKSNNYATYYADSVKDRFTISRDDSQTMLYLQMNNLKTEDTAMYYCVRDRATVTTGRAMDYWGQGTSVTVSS VL: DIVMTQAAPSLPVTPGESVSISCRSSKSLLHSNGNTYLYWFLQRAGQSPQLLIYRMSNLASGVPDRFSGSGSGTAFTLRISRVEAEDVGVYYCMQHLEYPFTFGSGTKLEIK is ___
Reply: 0.06

Task item: Can you check AB2 (antibody, V domains shown, Hybridoma monoclonal; Same VH/VL entries as AB1; also called antibody 2; clone 2) VH: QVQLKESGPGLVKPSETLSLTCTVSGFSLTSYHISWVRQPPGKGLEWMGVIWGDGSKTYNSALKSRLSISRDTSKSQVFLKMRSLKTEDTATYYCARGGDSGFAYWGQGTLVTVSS VL: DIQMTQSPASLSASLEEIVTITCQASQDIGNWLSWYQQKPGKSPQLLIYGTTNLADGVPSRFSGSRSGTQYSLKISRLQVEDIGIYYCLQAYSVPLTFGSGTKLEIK next?
Reply: 1.44

Task item: Can you check AB15 (antibody, V domains shown, Hybridoma monoclonal; Same VH/VL entries as AB14; also called antibody 15; clone 15) VH: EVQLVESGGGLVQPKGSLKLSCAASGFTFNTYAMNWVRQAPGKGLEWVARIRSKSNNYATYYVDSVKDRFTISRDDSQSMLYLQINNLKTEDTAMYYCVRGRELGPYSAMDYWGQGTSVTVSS VL: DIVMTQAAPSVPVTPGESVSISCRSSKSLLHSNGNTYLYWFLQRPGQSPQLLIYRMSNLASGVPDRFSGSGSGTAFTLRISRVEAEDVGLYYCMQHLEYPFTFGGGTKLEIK next?
Reply: 0.1

Task item: Can you check AB10 (antibody, V domains shown, Hybridoma monoclonal; also called antibody 10; clone 10) VH: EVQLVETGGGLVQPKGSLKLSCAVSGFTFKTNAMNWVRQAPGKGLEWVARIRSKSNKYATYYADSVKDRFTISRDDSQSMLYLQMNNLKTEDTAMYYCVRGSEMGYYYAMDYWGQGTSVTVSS VL: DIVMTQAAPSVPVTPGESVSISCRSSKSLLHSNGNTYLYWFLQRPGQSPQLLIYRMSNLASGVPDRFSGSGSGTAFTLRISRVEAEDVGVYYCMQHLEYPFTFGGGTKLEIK next?
Reply: 0.1

Task item: Can you check AB12 (antibody, V domains shown, Hybridoma monoclonal; also called antibody 12; clone 12) VH: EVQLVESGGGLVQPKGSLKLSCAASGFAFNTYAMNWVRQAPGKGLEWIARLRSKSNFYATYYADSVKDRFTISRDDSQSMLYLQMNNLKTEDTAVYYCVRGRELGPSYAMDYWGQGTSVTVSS VL: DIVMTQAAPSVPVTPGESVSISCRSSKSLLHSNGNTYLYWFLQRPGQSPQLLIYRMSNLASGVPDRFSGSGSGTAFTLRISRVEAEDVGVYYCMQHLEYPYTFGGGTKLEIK next?
Reply: 0.18

Task item: Can you check AB3 (antibody, V domains shown, Hybridoma monoclonal; also called antibody 3; clone 3) VH: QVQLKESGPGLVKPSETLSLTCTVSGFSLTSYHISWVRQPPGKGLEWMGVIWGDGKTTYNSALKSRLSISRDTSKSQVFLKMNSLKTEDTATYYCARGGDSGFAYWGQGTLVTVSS VL: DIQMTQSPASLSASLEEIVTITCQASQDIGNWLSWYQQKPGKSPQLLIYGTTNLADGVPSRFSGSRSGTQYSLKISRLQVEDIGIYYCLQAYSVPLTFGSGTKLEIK next?
Reply: 1.62

Task item: Can you check AB8 (antibody, V domains shown, Hybridoma monoclonal; also called antibody 8; clone 8) VH: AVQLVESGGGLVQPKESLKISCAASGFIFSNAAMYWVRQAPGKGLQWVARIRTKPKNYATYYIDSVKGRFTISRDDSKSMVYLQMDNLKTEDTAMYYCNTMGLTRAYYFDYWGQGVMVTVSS VL: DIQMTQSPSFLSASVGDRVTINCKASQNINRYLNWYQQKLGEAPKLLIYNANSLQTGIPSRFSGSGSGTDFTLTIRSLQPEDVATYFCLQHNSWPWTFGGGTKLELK next?
Reply: 0.13
